System: K4 kissing-loop RNA reporter;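 note: bound reporter read as fluorescence of individual clusters on recovered sequencing chips by microscopy, with normalized cluster intensities fitted with a binding model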
Experiment: apparent KD of K4 kissing-loop reporter; higher = weaker reporter binding
Conditions: Eterna round: R107; input ligand: theophylline 20 uM
readout kind: apparent KD of K4 kissing-loop reporter (nM)
Answer format: numeric, nM implied, no suffix.

Example entries begin here.
| sequence | apparent KD of K4 kissing-loop reporter, nM |
| --- | --- |
| AGACUACCACACUGUCAAUAGACAGUGGACUAGGAUAUGCUGAUAAGCAGAAGGAGUGAUGUUCCCAGGUAGUCAAUAAAAUAAU [FmnAX 13 G28+C66] | 322 |
| GCCGUAGAUUGAAGGAGCGGCUUCAUCAAAUCUCUUGCCCGCACCAGUGAUGUUGGUGUUAGCCAGGUAGGUCGCAAUCUACGGC | 493 |
| GCCGUACGCAUGGAUACCAGCAGAACUGCCCUCCCAGUGAUGUUGGGAGGAUCUUUCCUAUGCCCUUGGCAGCCAUGCGUACGGC | 117 |
| GGGCGUAUUCACCGAGUGAUGUUCGGAAGGAAGGAUAUUCAAGAUUGAAGAAGGUCCGGCCCAUCGGCCAUUAAACUUGAAAGGU [theeternabot_sameState_KL_FMN_A_48] | 162 |
| GUGCGGCUAGUGAUGUUGGUUGCGUGGGAAGGAGCGCAGAAACAUGCAGGUAGGUCGCCCACACCUCUGAAAGGAGGUUAAUUCA [Diusdige] | 171 |
| UAAAUAAUAAAACGAGUGAUGUUCGACGAUACCAGCCUCGAUAGAGGCCCUUGGCAGCGUAAAUGAUCACAAAGCCAAGGUAUAA [#01 K4 Theophylline A Exclusion] | 199 |
| AGUGACGUCGCGGCCGCCACUGAAAUGACAGUGAUGUUGUCAAAAGAAAGUGAUGUUAAGAAAUGCAGGACCGGGUGAUAGAAAA [semi-accidental] | 143 |
| UUUAUGAGGUCGGCCGCCACUGGAUUUAUGUUUGUUUCGUCUGGAUCAAAGUGAUGUUUUGAGUCCAGGACCGGGACAUUUGUUA [whbob_Ex_Tryp_B_w40] | 76.8 |
| UCCAGGAAUCAUGUCGUAGUGAUGUUAUGACGAGGACCGGUACGGCCGCCACUCGUCGUGGCCGGUUCUGAGGGCUAAUCUCUCA [theeternabot_exclusion_KL_Trp_A_34] | 227 |
| UCCUGCAAUCGACCACGAAAGUGGAUGGAUACCAGAGUCGAAAGACUCCCUUGGCAGCCAGUGAUGUUGGAAGCAGGUAAAUAAA [#SwitchBubble 17 #K4Late] | 288 |

apparent KD of K4 kissing-loop reporter recorded for this sequence, GUUGUAUACUGAAGGAGCGAGUAGUGGAAACAUAAACUCAUUGCGAGUGAUGUUCGCGGUACUCAGGUAGGUCGCGGUAAUCGUA [Exclusion Arginine B Gf 11] , is 485

apparent KD of K4 kissing-loop reporter recorded for this sequence, AGGCACGAGCAAGGAUAUUGAGUAGAGUGAUGUUCUGCCUGGGUUGGCUCGUAAGAGCCUUCUCAGCGAGAAGGUGCUCGUGCCU [#2 Same State - FMN A Attempt #23 (HarryS)] , is 552

apparent KD of K4 kissing-loop reporter recorded for this sequence, UUACUACCCAGUGAUGUUGGGUAGCGGCGGCGAGGACCGGUACGGCCGCCACUCGGCGCACGGGAGUGAUGUUCCUAAGAAUAAA [Same State Tryptophan A GF 9] , is 350

apparent KD of K4 kissing-loop reporter recorded for this sequence, GCUAUGGUAGGAAGGAGCGCUUAUUUAUUUUUACGAGUGAUGUUCGGUAGUAGAUAGUUAAAGCAGGUAGGUCGCCUACUAUAGC [Arginine B K4 16] , is 135

apparent KD of K4 kissing-loop reporter recorded for this sequence, CGUAGCAGAUGAAGGAGCGGCUACCUGUAUCAGGCAACUGCCUGAGUGAUGUUCAGGUAUAGCCAGGUAGGUCGCAUCUGCUACG [Arg B Ex t9b] , is 211

====

System: MS2 coat protein
Assay: apparent KD of MS2 coat protein; designed switch direction (-1 OFF switch, 1 ON switch): 1; higher = weaker reporter binding
Conditions: Eterna round: R95; input ligand: FMN 200 uM
readout kind: apparent KD of MS2 coat protein (nM)
Answer format: numeric, nM implied, no suffix.

| sequence | unit name | apparent KD of MS2 coat protein |
| --- | --- | --- |
| AGUCCAGCCUGAGCUGGACAAAAGCAUGUACAUGAGGAUCACCCAUGUUCAUGUACAAGCUUUUUGCUCGUCUUAAC [salish99_208a_r3_029] (puzzle: Sensor for hsa-mir-208a) | nM | 553 |
| CGUUCUUACUCGGUACGGUGAGUAGAGGAACAUGAGGAUCACCCAUGUAUGAGCUUUUUGCUCGUGAUUAACAGUAG [JR_SHM208a_Sub014] (puzzle: Sensor for hsa-mir-208a) | nM | 58 |
| UCUUGGUUUUUGCUCGUUUUUUGUGUUGAACAUGAGGAUCACCCAUGUAUUGUACGGUCCAGUUUAGUGGUAAUCCG [JMF 69] (puzzle: Sensor for hsa-mir-208a) | nM | 33.9 |

apparent KD of MS2 coat protein recorded for this sequence, AAUUUUAAACAUGAGGAUCACCCAUGUGUUAUAUAAGCAAAUAAAUAAAUAAAUAAAUAAAUAAAUAAAUAAAUAAA [RNA Sequence] (puzzle: Sensor for hsa-mir-208a version 2) , is 34.1

apparent KD of MS2 coat protein recorded for this sequence, AAAAUACAUGAGGAUCACCCAUGUAGAAACUACACAGGAUAUCGGACGGCUGUAGCCGAACGAGAAGGGUGAACCC [Uszadi] (puzzle: Same State 1) , is 205

====

Test system: MS2 coat protein
Test: apparent KD of MS2 coat protein; designed switch direction (-1 OFF switch, 1 ON switch): -1; higher = weaker reporter binding
Settings: input ligand: none
readout kind: apparent KD of MS2 coat protein
Please answer in the form of a number followed by its unit of measurement.

| sequence | readout kind | result value |
| --- | --- | --- |
| AGAUAACAUGAGGAUCACCCAUGUGAGGAUAUUUACCCAAGAGCUUCGGCUCUCAGGUGAAGAAGGCACGUUGA [EX1 #59] (Eterna round: R97, puzzle: Exclusion 1) | apparent KD of MS2 coat protein | 0.0554 µM |
| GUCAGCUCGUGAGGAUAUACAUGAGGAUCACCCAUGUGAUCAAUAGCAGCUUCGGCUGCAUUAAUGUAGAAGGCACGAGCUGAC [ENG2/5-A1] (Eterna round: R96, puzzle: Exclusion NG 2) | apparent KD of MS2 coat protein | 0.152 µM |
| GCGCACCUACCAAAAGGUAGGCCAACAUGAGGAUCACCCAUGUAGGAUAUCGAUUGCUUUGCAGUCGAGAAGGGCAUGAUGCGC [JL ENG3 3.80 Mod 20] (Eterna round: R96, puzzle: Exclusion NG 3) | apparent KD of MS2 coat protein | 0.0199 µM |
| AUAAUGUGAGGAUAUCAGUCGACUAGCCUCGGCUAGUCGACUGAGAAGGUACAUGAGGAUCACCCAUGUAGAUC [E4/20-A2] (Eterna round: R97, puzzle: Exclusion 4) | apparent KD of MS2 coat protein | 0.0264 µM |
| GACUAGAGAGGAUAUAUUUACAGUGUACCUCGGAUGAUCGCACUUGAGGAUCACCCAAGUAGAAGGCUCGAGGG [EX2 #29] (Eterna round: R97, puzzle: Exclusion 2) | apparent KD of MS2 coat protein | 0.0152 µM |
| CUGAGCUGAGGAUAUACAUGAGGAUCACCCAUGUUAAGCAGCUUGCGUAAAAGCAGAUGUAGAAGGCAGUUCGG [Mod of JL 18 - Jieux - Exclusion 3] (Eterna round: R97, puzzle: Exclusion 3) | apparent KD of MS2 coat protein | 0.0137 µM |

apparent KD of MS2 coat protein recorded for this sequence, AUUAGCGUAGGAUAUUAGUACAUGUACAUGAGGAUCACCCAUGUGAGGUGAGUCUUAGAUUAAGAAGGGCGAAGAA [EX5 #34] (Eterna round: R97, puzzle: Exclusion 5) , is 0.704 µM

====

System: MS2 coat protein
Assay: apparent KD of MS2 coat protein; higher = weaker reporter binding
Settings: Eterna round: R107; input ligand: theophylline 20 uM
Grouping by measured apparent KD of MS2 coat protein is done with the following cut points: group A = under 30 nM, group B = from 30 nM up to 80 nM, group C = 80 nM and over

| sequence | class label |
| --- | --- |
| UAUUAUCAGUCGGCCGCCACUGUCACAUGAGGAUCACCCAUGUAACUUGGGUUAUAUUUAAUAUACAGGACCGGGACAAAGGCUA [JR_ExcTryptoB_Sub012] | group B |
| UGGGCUGGGUGCGUAAAGGGCCUGGCGCAUCGAGGACCGGUACGGCCGCCACUCGGCUGUACAUGAGGAUCACCCAUGUCAGGGU [#1 Same State - Tryptophan A Attempt #18 (HarryS)] | group C |
| AGACAUGAGGAUCACCCAUGUAGUACGGAUACCAGAUCCAGAUGCAUCCCUUGGCAGCUGUGGUACAGCGUUACAUCGCUCGUAG [Exclusion - Theophylline A (Freestyle 22)] | group A |
| GGCACCAGGAGAAGGAGCGUGAAGACAUGAGGAUCACCCAUGUAGAGGCCCGUACAGGGUUCGCAGGUAGGUCGCUCCUGGUGCC [#1 Same State - Arginine B Attempt #12 (HarryS)] | group A |
| GCCAAAGGCUACAUGAGGAUCACCCAUGUACGAGGACCGGUACGGCCGCCACUCGUACGGCCUCCUACUGGACGGGAAACCGUCG [ETA NP+V+V2 #28] | group B |
| AGAGUUAGACAAAAGUCUAGCUCACCAGAAGGAGCGUCCGAAAGGACAGGUAGGUCGCUGGUGCAUGAGGAUCACCCAUGCUCCU [ArgAS 19 #OpenEnded #AlternativeMS2] | group C |
| AUCGUACCUGAUGAUACCAGCAAUUGCUCGUAACAUGAGGAUCACCCAUGUGAUCAGUGAUGCCCUUGGCAGCAUGAUCGGUGCA [Same State - Theophylline B (Freestyle 19)] | group C |
| AUUCAUAACUGAAGGAGCGUGAUAUAAAUUUUUACAUGAGGAUCACCCAUGUUUCAUCGAUCACAGGUAGGUCGCAGAUUCUCAU [JR_SSArginiB_Sub012] | group B |
| UGGUAUGUAGGAAGGAGCGCAUACUUCACAUGAGGAUCACCCAUGUCGAGACGUGAGUCAGUGCAGGUAGGUCGCCUAGUUAUGA [Same State - Arginine B (Freestyle 22)] | group B |
| CUGCCAUGCAGAGAUACCAGUGAGCUCAGAACAUGAGGAUCACCCAUGUAGGUUGCCGAUCACCCUUGGCAGCUCUGCAUGGCAG [*$+%!] | group A |

Now turn to the next sequence.
Returns: class label. Input: GGGCAAGAGGGAAGGAGCGUUAGCUGAGUCACAUGAGGAUCACCCAUGUCGCACGUAGUAUGACAGGUAGGUCGCCCUCUACCCU [SS-ArgB15]
group A
